system: UACC-257 melanoma; experiment: NCI tumour cell line growth inhibition, 48 h
Readout Name: TGI

[[record]]
compound = "Nc1nc(Cl)cc(N=Nc2ccccc2)n1"
observed = "> 100 µM"

[[record]]
compound = "S=c1nc(-c2nc(=S)[nH]c3c2CCCCCCCCCC3)c2c([nH]1)CCCCCCCCCC2"
observed = "> 100 µM"

[[record]]
compound = "O=C1NC(=S)N/C1=C/c1ccccc1O"
observed = "> 100 µM"

[[record]]
compound = "CN(C)CCCNc1nn2c(=O)c3ccccc3nc2c2ccccc12"
observed = "32.6 µM"

[[record]]
compound = "c1ccc2c(CNCCCCCCNCc3cccc4ccccc34)cccc2c1"
observed = "3.17 µM"

[[record]]
compound = "NC(=O)CCC(NC(=O)OCc1ccccc1)C(=O)OCC(=O)c1ccccc1 (stereo not drawn)"
observed = "> 100 µM"

[[record]]
compound = "O=C(Nn1c(-c2ccccc2)nc2ccccc2c1=O)c1ccccn1"
observed = "> 100 µM"

[[record]]
compound = "NC(Cc1cc(I)c(O)c(I)c1)C(=O)O (stereo not drawn)"
observed = "> 354 µM"


----------
test system: TK-10 renal; assay: NCI tumour cell line growth inhibition, 48 h
Below: a set of entries, each annotated with reported TGI.
Readout Name: TGI

[[record]]
compound = "C/C(=C/CO[Si](C)(C)C(C)(C)C)C(=O)N(C)c1ccccc1I"
readout_name = "TGI"
observed = "33.3 µM"

[[record]]
compound = "COc1ccc(C2OC(=O)c3c2ccc2ccccc32)c(C)c1 (stereo unspecified)"
readout_name = "TGI"
observed = "17.7 µM"

[[record]]
compound = "O=C1NC(=O)/C(=C/C=C/c2ccccc2)S1"
readout_name = "TGI"
observed = "> 100 µM"

[[record]]
compound = "OCC1OC(n2cnc3cccnc32)CC1O (stereo unspecified)"
readout_name = "TGI"
observed = "> 100 µM"

[[record]]
compound = "Cc1cc(C)cc(-n2c3nc(=O)n(C)c(=O)c-3nc3ccccc32)c1"
readout_name = "TGI"
observed = "> 100 µM"

[[record]]
compound = "O=NC1c2cccc3cccc(c23)C1N=O (stereo unspecified)"
readout_name = "TGI"
observed = "37.1 µM"

[[record]]
compound = "NC(=O)c1cn(C2OC(CO)C(O)C2O)c2ncnc(N)c12 (stereo unspecified)"
readout_name = "TGI"
observed = "0.0707 µM"

[[record]]
compound = "COC(=O)C(=O)C1(CCC(C)=O)c2ccccc2-c2ccccc21"
readout_name = "TGI"
observed = "> 100 µM"

[[record]]
compound = "S=C(N/N=C\\C=N/NC(=S)N1CCCCCC1)N1CCCCCC1"
readout_name = "TGI"
observed = "> 100 µM"

[[record]]
compound = "Cn1c2c([N+](=O)[O-])[se]nc2c(=O)n1-c1ccc([N+](=O)[O-])cc1"
readout_name = "TGI"
observed = "16.2 µM"

[[record]]
compound = "COC(=O)C(/C(=N/NC(=O)c1ccncc1)C(=O)Nc1ccccc1OC)c1nc2ccc(Cl)cc2[nH]c1=O (stereo unspecified)"
readout_name = "TGI"
observed = "> 100 µM"

[[record]]
compound = "CN(C)CCCNc1nn2c(=O)c3ccccc3nc2c2ccccc12"
readout_name = "TGI"
observed = "45.4 µM"

[[record]]
compound = "CCCCCCCCCCCC(=O)OCC1OC(n2cc(F)c(=O)[nH]c2=O)C(NC(=O)OCc2ccccc2)C(O)C1O (stereo unspecified)"
readout_name = "TGI"
observed = "> 100 µM"

[[record]]
compound = "CCCCc1c2c(nc3c1CCc1cc4c(nc1-3)-c1nc3c(c(CCCC)c1CC4)CCC/C3=C\\c1ccccc1)/C(=C/c1ccccc1)CCC2"
readout_name = "TGI"
observed = "> 100 µM"

[[record]]
compound = "O=C(NCc1cccnc1)/C(=C\\c1ccc(Br)cc1)S(=O)(=O)c1ccccc1"
readout_name = "TGI"
observed = "2.91 µM"

[[record]]
compound = "CCSc1oc(-c2ccccc2)nc1[P+](c1ccccc1)(c1ccccc1)c1ccccc1"
readout_name = "TGI"
observed = "2.66 µM"

[[record]]
compound = "COC(=O)/C=C/C(=O)C1C(C(=O)OC)C2(C(=O)OC)CCC1(C(=O)OC)N2 (stereo unspecified)"
readout_name = "TGI"
observed = "> 100 µM"

[[record]]
compound = "COc1ccc(/C(C)=C(\\c2ccc(Cl)cc2)c2ccc(OCCN3CCCC3)cc2)cc1"
readout_name = "TGI"
observed = "10.4 µM"

[[record]]
compound = "CC(=O)O[C@H]1C#C/C=C\\C#CC[C@@H]2C(=O)N(C(=O)OC(C)(C)C)[C@@H]12"
readout_name = "TGI"
observed = "> 100 µM"

[[record]]
compound = "COc1ccc(-c2ccc3c(NC(=O)C4CC4)n[nH]c3n2)cc1"
readout_name = "TGI"
observed = "> 25 µM"

[[record]]
compound = "Clc1nc(-[n+]2ccc(-c3ccncc3)cc2)nc(Nc2ccccc2)c1Cl"
readout_name = "TGI"
observed = "> 100 µM"

[[record]]
compound = "COc1ccc2c(c1)CCC1C2CC[C@@]2(C)C1CC[C@@]2(O)CNC(=O)/C=C/c1ccc(O)c(OC)c1 (stereo partly specified)"
readout_name = "TGI"
observed = "> 100 µM"

[[record]]
compound = "Cc1nc(C)c(C(=O)Nc2cccc3c2C(=O)NC3=O)cc1C(=O)Nc1cccc2c1C(=O)NC2=O"
readout_name = "TGI"
observed = "> 100 µM"

[[record]]
compound = "Nc1[nH]c(=O)ncc1F"
readout_name = "TGI"
observed = "> 100 µM"

[[record]]
compound = "O=C1NC(=S)N/C1=C/c1ccccc1O"
readout_name = "TGI"
observed = "> 100 µM"

[[record]]
compound = "CC(CCC(=O)O)[C@H]1CCC2[C@H]3C(CC[C@@]21C)[C@@]1(C)CCC(O)C[C@H]1C[C@@H]3O (stereo partly specified)"
readout_name = "TGI"
observed = "> 100 µM"

